# Test system: Staphylococcus aureus
# Experimental details: ≥ marks a high value that may be exact or a test limit, other limits are often not marked, values filed in µg/mL are converted to µM
Measured endpoint: MIC (µM)
Field: numeric (µM). Do not append units.

# Compound, Measured value
rows = [
    ("CC[C@H](C)[C@H](NC(=O)[C@H](C)NC(=O)[C@H](CC(C)C)NC(=O)[C@H](CS)NC(=O)[C@H](Cc1cnc[nH]1)NC(=O)[C@H](C)N)C(=O)NCC(=O)N[C@@H](CCCN=C(N)N)C(=O)N[C@@H](CCCCN)C(N)=O [AHCLAIGRK]", 25.8),
]

Now take the following compound into account.
// MIC lookup, compound = CC(C)C[C@H](NC(=O)[C@H](CCCCN)NC(=O)[C@H](Cc1ccccc1)NC(=O)[C@@H](NC(=O)[C@@H](NC(=O)CNC(=O)[C@H](CC(C)C)NC(=O)[C@@H](N)Cc1ccccc1)C(C)C)C(C)C)C(=O)N[C@@H](C)C(=O)N[C@@H](CO)C(=O)N[C@@H](CCCCN)C(=O)N[C@H](C(=O)N[C@@H](Cc1ccccc1)C(=O)NCC(=O)N[C@@H](CCCCN)C(=O)N[C@H](C(=O)N[C@@H](Cc1ccccc1)C(=O)NCC(=O)N[C@@H](CCCCN)C(=O)N[C@H](C(=O)O)C(C)C)C(C)C)C(C)C , result: 3.69

###

# Test system: Pseudomonas aeruginosa
# Experimental details: ≥ marks a high value that may be exact or a test limit, other limits are often not marked, values filed in µg/mL are converted to µM
Listed below: MIC values for each entry.
Field: numeric (µM). Do not append units.

// MIC lookup, compound = CC[C@H](C)[C@@H]1NC(=O)CNC(=O)[C@H](CCCN=C(N)N)NC(=O)[C@H](Cc2ccc(O)cc2)NC(=O)[C@@H]2CSSC[C@H](NC1=O)C(=O)N[C@@H](Cc1ccc(O)cc1)C(=O)N[C@@H](CCCN=C(N)N)C(=O)N[C@@H](CCCN=C(N)N)C(=O)N[C@H](C(=O)N[C@@H](CCCN=C(N)N)C(=O)O)CSSC[C@H](NC(=O)[C@H](Cc1c[nH]c3ccccc13)NC(=O)[C@@H](N)CCCCN)C(=O)N[C@@H](C)C(=O)N[C@@H](CCCN=C(N)N)C(=O)N[C@@H](C(C)C)C(=O)N2 , result: 0.912

// MIC lookup, compound = CC[C@H](C)[C@H](NC(=O)[C@H](C)NC(=O)[C@H](CCCCN)NC(=O)[C@H](CC(C)C)NC(=O)[C@H](CCCCN)NC(=O)[C@@H](N)CC(C)C)C(=O)N[C@@H](C)C(=O)N[C@@H](C)C(=O)N[C@@H](CC(C)C)C(=O)N[C@@H](C)C(=O)N[C@@H](CCCCN)C(=O)N[C@@H](CCCCN)C(=O)N[C@@H](CCCCN)C(=O)N[C@@H](Cc1c[nH]c2ccccc12)C(N)=O , result: 10.1

// MIC lookup, compound = CC[C@H](C)[C@@H]1NC(=O)CNC(=O)[C@H](CCCN=C(N)N)NC(=O)[C@H](Cc2ccc(O)cc2)NC(=O)[C@@H]2CSSC[C@H](NC1=O)C(=O)N[C@@H](Cc1ccc(O)cc1)C(=O)N[C@@H](CCCN=C(N)N)C(=O)N[C@@H](CCCN=C(N)N)C(=O)N[C@H](C(=O)N[C@@H](CCCN=C(N)N)C(=O)O)CSSC[C@H](NC(=O)[C@H](C)NC(=O)[C@@H](N)CCCCN)C(=O)N[C@@H](Cc1ccccc1)C(=O)N[C@@H](CCCN=C(N)N)C(=O)N[C@@H](C(C)C)C(=O)N2 , result: 1.86
